- assay_summary: qHTS assay to test for compound auto fluorescence at 590 nm (red) in HEK293 cell free culture (AID 720683)
- experimental_conditions: cell-free medium autofluorescence, Ex540/Em590 red; series mostly up to 91.3 µM
The source made the active and inactive calls. Calls follow the shape of the dose curve; as a rule, active = well fitted curve in the direction sought with a large enough effect in the repeat runs; inconclusive = weak or mixed curves; inactive = flat fitted curve, though single readings scatter.

{"columns": ["compound", "fluorescence, % of fluorescent control"],
 "data": [
  ["CCCN(CCC)c1c([N+](=O)[O-])cc(S(N)(=O)=O)cc1[N+](=O)[O-]", "inactive"],
  ["CC[C@H](C)[C@H]1O[C@]2(C=C[C@@H]1C)C[C@@H]1C[C@@H](C/C=C(\\C)[C@@H](O[C@H]3C[C@H](OC)[C@@H](O[C@H]4C[C@H](OC)[C@@H](O)[C@H](C)O4)[C@H](C)O3)[C@@H](C)/C=C/C=C3\\CO[C@@H]4[C@H](O)C(C)=C[C@@H](C(=O)O1)[C@]34O)O2", "inactive"],
  ["CCOP(=S)(OCC)OC(Cl)C(Cl)(Cl)Cl (stereo not drawn)", "inactive"]
]}

Entry source: PubChem BioAssay (Tox21)
